Reference source: patent US20240208959A1

Protein target, amino acids: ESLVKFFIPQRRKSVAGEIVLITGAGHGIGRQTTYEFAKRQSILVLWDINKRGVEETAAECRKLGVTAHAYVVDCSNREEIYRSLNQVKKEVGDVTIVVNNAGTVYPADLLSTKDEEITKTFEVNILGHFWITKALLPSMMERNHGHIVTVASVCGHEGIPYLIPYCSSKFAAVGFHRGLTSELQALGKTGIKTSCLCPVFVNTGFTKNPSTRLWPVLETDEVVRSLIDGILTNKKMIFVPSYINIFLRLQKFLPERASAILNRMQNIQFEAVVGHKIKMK
Would you mind telling me the reported IC50 of each entry?

Here is how some molecules turned out for IC50.
molecule: Cc1nsc(NC(=O)c2ccc(O)c(Cl)c2)c1C(=O)NCCC(C)(C)C [Example 5]
IC50: ≤ 100 nM

molecule: O=C(Nc1scnc1C(=O)NCc1ccccc1OC(F)(F)F)c1ccc(=O)[nH]n1 [Example 15]
IC50: > 10000 nM

molecule: CC(C)c1cc(C(=O)Nc2scnc2C(=O)NCc2ccccc2OC(F)(F)F)n[nH]c1=O [Example 14]
IC50: > 10000 nM

In the following, a different molecule is considered.
Note to self: IC50 recorded for O=C(Nc1ncsc1C(=O)NCCc1ccccc1C(F)(F)F)c1ccc(O)c(C(F)(F)F)n1 [Example 1] was 100 to 500 nM
